# assay-system: Succinyl-diaminopimelate desuccinylase (Haemophilus influenzae (strain ATCC 51907 / DSM 11121 / KW20 / Rd), UniProt P44514)
# Sequence (P44514 whole entry): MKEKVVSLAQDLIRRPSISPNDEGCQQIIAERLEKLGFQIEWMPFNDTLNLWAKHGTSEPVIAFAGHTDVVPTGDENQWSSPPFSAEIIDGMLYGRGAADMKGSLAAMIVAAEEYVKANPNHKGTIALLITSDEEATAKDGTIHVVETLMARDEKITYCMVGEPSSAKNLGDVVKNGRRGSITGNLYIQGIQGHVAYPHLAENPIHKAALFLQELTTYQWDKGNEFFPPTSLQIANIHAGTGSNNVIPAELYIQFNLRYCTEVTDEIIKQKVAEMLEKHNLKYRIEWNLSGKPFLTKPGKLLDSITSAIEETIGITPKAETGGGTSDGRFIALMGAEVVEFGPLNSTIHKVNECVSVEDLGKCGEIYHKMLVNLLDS
# assay-protocol: Inhibition of Haemophilus influenzae recombinant DapE
pIC50: −log10 of the molar value.
The entries below come with measured pIC50 values attached.
value-kind: pIC50

compound	operator-symbol	measured-result
O=C(O)c1ccc(B(O)O)cc1	<	2.00
O=C(O)CCCS	=	4.37
O=C(NO)OCc1ccccc1	<	3.00
O=C(O)CCP(=O)(O)O	=	2.79
NC(=S)Nc1ccccc1	<	4.00
O=C(O)c1cccc(S)c1	=	4.47
CC(C)(S)[C@H](N)C(=O)O	=	4.86
CC(=O)NO [ACETOHYDROXAMIC ACID]	<	3.00
OB(O)c1cccs1	=	4.04
CC(C)(S)[C@@H](N)C(=O)O	=	4.30
O=C(O)c1cccc(B(O)O)c1	<	2.00
CCOC(=O)[C@H](CCc1ccccc1)N[C@@H](C)C(=O)N1CCC[C@H]1C(=O)O	<	3.00

* * *

# assay-system: Succinyl-diaminopimelate desuccinylase (Haemophilus influenzae (strain ATCC 51907 / DSM 11121 / KW20 / Rd))
# assay-protocol: Inhibition of Haemophilus influenzae recombinant DapE
value-kind: Ki

molecule	value-kind	measured-result
O=C(O)CCP(=O)(O)O	Ki	800 µM
